Assay: gradient 5% acetonitrile 3 min, to 50% in 2 min, to 85% in 15 min, held 3 min, 100 µL/min
Conditions: column: Zorbax Extend-C18 2.1 x 50 mm; eluents: water / acetonitrile, 0.1% formic acid
observationType: RP-LC retention time (s)

Illustrative cases are given below, each with its answer.
Consider the molecule CCOC(=O)c1c(C)n(CC(=O)OC)c2ccc(OC)cc12 . State its measured RP-LC retention time. 904

Consider the molecule O=C(CN1C(=O)CSc2cccn2-c2ccccc21)N1CCN(c2ccccn2)CC1 . State its measured RP-LC retention time. 607

Consider the molecule CCC1Oc2ccc(S(=O)(=O)N3CCC(C(=O)NC4CCC(C)CC4)CC3)cc2NC1=O (centres undefined) . State its measured RP-LC retention time. 904

1 = CCOC(=O)c1noc2nc(C)nc(Nc3ccc(CC)cc3)c12
2 = CCN(CC)c1ccc(NC(=O)Cn2cc3c(n2)CCCCC3)c(C)c1
# argmax over RP-LC retention time for candidates 1 and 2 Could you answer with the label of the item you picked? 1
(1: 1160 s, 2: 674 s)

I = CS(=O)(=O)N(Cc1ccncc1)C1CN(C(=O)c2ccoc2)C1
II = CCOC(=O)c1cnc2c(-c3ccc(Br)cc3)c(C)nn2c1N
# argmax over RP-LC retention time for candidates I and II Could you answer with the label of the item you picked? II

I = CCOc1ccccc1C(=O)Nc1c(-c2ccc(OC)cc2)nc2cc(C)ccn12
II = Cc1sc(-c2cc(C(F)(F)F)on2)cc1S(=O)(=O)NCCC(C)C
# argmax over RP-LC retention time for candidates I and II Could you answer with the label of the item you picked? II
(II: 1200 s, I: 732 s)

I = NC(=O)c1ccccc1NC(=O)CCCn1cnc(-c2ccc(F)cc2)cc1=O
II = CCCn1c(=O)c(N2CCN(C(=O)CC3CCCC3)CC2)nc2ccccc21
Form: Entry with minimum RP-LC retention time (choose one): I / II Could you answer with the label of the item you picked? I
(I: 666 s, II: 1130 s)

I = O=C(NCc1ccc(-n2ccnc2)cc1)c1ccc(F)c(F)c1
II = CCc1ccccc1S(=O)(=O)N1CCC(N2CCN(Cc3ccc(C)cc3)C(=O)C2=O)CC1
# argmax over RP-LC retention time for candidates I and II Could you answer with the label of the item you picked? II
(II: 955 s, I: 625 s)

1 = CCCCNC(=O)c1ccc2c(c1)NC(=O)C1CCCCN21 (centres undefined)
2 = Cc1cc2nc(Nc3nc(SCc4ccc(Cl)cc4)cc(=O)[nH]3)nc(C)c2cc1C
# argmax over RP-LC retention time for candidates 1 and 2 Could you answer with the label of the item you picked? 2
(2: 1110 s, 1: 759 s)

A = Cn1cnc2ccc(-c3noc(CCc4c[nH]c5ccccc45)n3)cc21
B = Cc1ccc(-c2noc(Cc3nnc(-c4cccc(F)c4)o3)n2)cc1
# argmax over RP-LC retention time for candidates A and B Could you answer with the label of the item you picked? B

I = Cc1cccc(NC(=O)Cn2ncc3c(c2=O)N(C2CC2)C(=O)CS3)c1C
II = CCn1nccc1-c1cccc(-c2noc(-c3cc4ccccc4oc3=O)n2)c1
Form: Entry with minimum RP-LC retention time (choose one): I / II Could you answer with the label of the item you picked? I

----------
Assay: gradient 5% acetonitrile 3 min, to 50% in 2 min, to 85% in 15 min, held 3 min, 100 µL/min
Conditions: column: Zorbax Extend-C18 2.1 x 50 mm; eluents: water / acetonitrile, 0.1% formic acid
observationType: RP-LC retention time (s)

Illustrative cases are given below, each with its answer.
Consider the molecule Cc1cc(=O)n(CC(=O)Nc2cccc(C(F)(F)F)c2)c(N2CCOCC2)n1 . State its measured RP-LC retention time. 754

Consider the molecule Cc1ccc(-c2noc(Cn3ccn(-c4ccc(Cl)cc4)c(=O)c3=O)n2)cc1 . State its measured RP-LC retention time. 918

Consider the molecule CCc1cccc(NC(=O)C2(C)Oc3cccnc3N(C(C)C)C2=O)c1 (stereo not given) . State its measured RP-LC retention time. 1120

Consider the molecule COc1ccc(-c2nnc(-c3cccnc3N3CCN(C(=O)c4ccc(C#N)cc4)CC3)o2)cc1 . State its measured RP-LC retention time. 874

Consider the molecule Cc1nnc2nc(-c3ccccc3)nc(-c3ccccc3)n12 . State its measured RP-LC retention time. 1130

Consider the molecule CC1=C(c2ccc(C)cc2)S(=O)(=O)N=C1N1CCCN(C(=O)NC2CCCCC2)CC1 . State its measured RP-LC retention time. 890

Consider the molecule Cc1c(Cl)cccc1S(=O)(=O)N1CCCC1c1nc(-c2ccc(F)cc2)no1 (stereo not given) . State its measured RP-LC retention time. 1220

Consider the molecule O=C(NCC1CCOCC1)Nc1ccc(Cl)cc1F . State its measured RP-LC retention time. 764

A = Cc1ccc(NS(=O)(=O)c2ccc(-c3c(C)noc3C)cc2)cc1C
B = COCC(=O)NC1CCC12CCN(C(=O)CC(C)C)CC2 (stereo not given)
# argmax over RP-LC retention time for candidates A and B Could you answer with the label of the item you picked? A
